# ASSAY_TARGET: Troponin I, cardiac muscle (Homo sapiens) + Troponin T, cardiac muscle (Homo sapiens) + Troponin C, slow skeletal and cardiac muscles (Homo sapiens) (UniProt P19429+P45379+P63316)
# TEST_NAME: cardiac RTF calcium sensitivity activators, confirmation, biochemical, IANBD-TnC fluorescence, triplicate (AID 504383);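 note: 0% = DMSO at 0.472 mM calcium and 100% = DMSO at 2.9 mM calcium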
# CONDITION_SUMMARY: IANBD-labeled cardiac RTF, Ca2+ sensitivity fluorescence; at 7.2 µM; scaled from EC20 to saturating calcium; tested at EC20 calcium, 0.472 mM
Among all 2,500 compounds or so, about 1,200 (48%) were called active.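 Rule for the calls: active = mean activation above the low control average plus 3 SD, as set in the primary screen (cut at about 12% in these data); inactive = the rest.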 The set was probably picked from earlier hits. This is one part of the list.
Pick one: active, inactive

What was the test verdict on CCOc1ccc(-c2nc3scc(-c4cccs4)c3c(=O)[nH]2)cc1 ?
active

Fill in: this test's call for COc1cc2c(cc1OC)CN(Cc1cc(=O)oc3cc(C)c(C)cc13)CC2 is ___
inactive

Lab log entry: O=C(Nc1ccc(F)cc1F)c1ccc(COc2c(F)c(F)cc(F)c2F)o1 — outcome as called in the assay?
inactive

* * *

# ASSAY_TARGET: Troponin I, cardiac muscle (Homo sapiens) + Troponin T, cardiac muscle (Homo sapiens) + Troponin C, slow skeletal and cardiac muscles (Homo sapiens) (UniProt P19429+P45379+P63316)
# TEST_NAME: cardiac RTF calcium sensitivity activators, confirmation, biochemical, IANBD-TnC fluorescence, triplicate (AID 504383);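 note: 0% = DMSO at 0.472 mM calcium and 100% = DMSO at 2.9 mM calcium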
# CONDITION_SUMMARY: IANBD-labeled cardiac RTF, Ca2+ sensitivity fluorescence; at 7.2 µM; scaled from EC20 to saturating calcium; tested at EC20 calcium, 0.472 mM
Out of some 2,500 compounds screened, about 1,200 (48%) were called active.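 Rule for the calls: active = mean activation above the low control average plus 3 SD, as set in the primary screen (cut at about 12% in these data); inactive = the rest.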 So high a share suggests a set chosen from earlier hits. Some of the results follow.
Assign a class; possible classes are true (1) (active), false (0) (inactive)

| COMPOUND | CATEGORY |
| --- | --- |
| O=C(COC(=O)c1ccc(S(=O)(=O)N2CCCC2)cc1)NCc1ccco1 | true (1) |
| CN(C)c1ccc(/C=C2\Oc3ccc(C#Cc4cccc(N)c4)cc3C2=O)cc1 | false (0) |
| COc1ccc(/C=C2\Oc3cc(OCC(N)=O)ccc3C2=O)cc1OC | false (0) |
| CCC(=O)N1CCC2(CC1)Oc1ccc(Cl)cc1C(=O)C21CC(c2cccnc2)=NO1 (stereo unspecified) | true (1) |
| O=C(NCC(=O)N1CCN(c2ncccn2)CC1)c1ccccc1OC(F)F | false (0) |

# fetch the recorded call for Nc1ccc(S(N)(=O)=O)cc1N here
true (1)

* * *

# ASSAY_TARGET: Troponin I, cardiac muscle (Homo sapiens) + Troponin T, cardiac muscle (Homo sapiens) + Troponin C, slow skeletal and cardiac muscles (Homo sapiens) (UniProt P19429+P45379+P63316)
# TEST_NAME: cardiac RTF calcium sensitivity activators, confirmation, biochemical, IANBD-TnC fluorescence, triplicate (AID 504383);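 note: 0% = DMSO at 0.472 mM calcium and 100% = DMSO at 2.9 mM calcium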
# CONDITION_SUMMARY: IANBD-labeled cardiac RTF, Ca2+ sensitivity fluorescence; at 7.2 µM; scaled from EC20 to saturating calcium; tested at EC20 calcium, 0.472 mM
The campaign covered roughly 2,500 compounds. About 1,200 (48%) were called active.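 Rule for the calls: active = mean activation above the low control average plus 3 SD, as set in the primary screen (cut at about 12% in these data); inactive = the rest.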 So high a share suggests a set chosen from earlier hits. The list shows a part of the results.
Thanks in advance; please answer with one of these: active, inactive

Assay result, entry COc1ccc(/C=C/c2nc3sc4c(c3c(=O)o2)CCC4)cc1 — outcome?
active

Outcome logged for COCCn1c(-c2ccc(C)cc2)nc2oc3cc(OC)ccc3c(=O)c2c1=O in this assay:
inactive

Answer briefly: the call reported for COc1cccc(CC(NC(C)=O)C(=O)NC2CCN(c3nc(C)cc(C)c3C#N)CC2)c1OC (stereo not given) in this assay.
active

Test call, this compound: CC(=O)NC(Cc1ccc(F)c(F)c1)C(=O)NC1CCN(S(=O)(=O)c2ccc(C)cc2)CC1 (stereo not given)
inactive

Assay outcome for CCN(C(=O)CSc1nnc(COc2ccccc2F)n1N)c1c(N)n(Cc2ccccc2)c(=O)[nH]c1=O : what was it?
active

* * *

# ASSAY_TARGET: Troponin I, cardiac muscle (Homo sapiens) + Troponin T, cardiac muscle (Homo sapiens) + Troponin C, slow skeletal and cardiac muscles (Homo sapiens) (UniProt P19429+P45379+P63316)
# TEST_NAME: cardiac RTF calcium sensitivity activators, confirmation, biochemical, IANBD-TnC fluorescence, triplicate (AID 504383);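 note: 0% = DMSO at 0.472 mM calcium and 100% = DMSO at 2.9 mM calcium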
# CONDITION_SUMMARY: IANBD-labeled cardiac RTF, Ca2+ sensitivity fluorescence; at 7.2 µM; hits give high values; scaled from EC20 to saturating calcium; tested at EC20 calcium, 0.472 mM
The campaign covered roughly 2,500 compounds. About 1,200 (48%) were called active. So high a share suggests a set chosen from earlier hits. The list shows a part of the results.
# cutoff 8% applies to activation; >= gives MET, < gives NOT MET

Reference set (4 entries):
| MOLECULE | CATEGORY |
| --- | --- |
| CCOC(=O)C1=C(C)N=c2s/c(=C\c3ccc(OCC(=O)O)cc3)c(=O)n2C1c1ccc(Cl)cc1 (stereo not given) | MET |
| CCn1cc(Cl)c(C(=O)NNC(=O)CCn2cc([N+](=O)[O-])cn2)n1 | MET |
| COc1ccccc1N1CCN(C(=O)CCC(=O)O)CC1 | NOT MET |
| CCNC(=S)NNC(=O)CCn1cc(C)cn1 | NOT MET |

Is reported activation greater than or equal to 8% here: Cc1ccc(CN2CCN(Cc3ccc(-n4cccn4)cc3C)CC2CCO)cc1 (stereo not given)
MET

hey, is activation for this one >= 8%? COCCNC(=O)C(c1ccc(C)o1)N(Cc1ccc(F)cc1)C(=O)Cn1nnc2ccccc21 (stereo not given)
NOT MET

Does activation meet or surpass 8% for CCOc1ccc(CN2CCN(C/C=C/c3ccc(OC)cc3)CC2CCO)cc1 (stereo not given) ?
NOT MET

activation >= 8% for O=C(NCCCN1CCOCC1)C(=O)NCc1ccco1 ?
MET

Can CCOC(=O)C1=C(C)N=c2s/c(=C/c3ccc(OCC(=O)O)c(OC)c3)c(=O)n2C1c1ccc(Cl)cc1 (stereo not given) be said to have activation at or above 8%?
MET

Textbook exercise: given the entry Cn1c(C(=O)NCCCN2CCCCCC2)cc2c(=O)n(C)c3ccccc3c21 , state whether its activation is greater than or equal to 8%.
MET

* * *

# ASSAY_TARGET: Troponin I, cardiac muscle (Homo sapiens) + Troponin T, cardiac muscle (Homo sapiens) + Troponin C, slow skeletal and cardiac muscles (Homo sapiens) (UniProt P19429+P45379+P63316)
# TEST_NAME: cardiac RTF calcium sensitivity activators, confirmation, biochemical, IANBD-TnC fluorescence, triplicate (AID 504383);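 note: 0% = DMSO at 0.472 mM calcium and 100% = DMSO at 2.9 mM calcium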
# CONDITION_SUMMARY: IANBD-labeled cardiac RTF, Ca2+ sensitivity fluorescence; at 7.2 µM; hits give high values; scaled from EC20 to saturating calcium; tested at EC20 calcium, 0.472 mM
Out of some 2,500 compounds screened, about 1,200 (48%) were called active. The set was probably picked from earlier hits. The list shows a part of the results.
MEASURED_ATTRIBUTE: activation (%)
Answers are plain numbers, in %.

Study these solved cases before continuing.
| COMPOUND_STRING | activation [%] |
| --- | --- |
| COc1ccc(-c2c(C#N)c(N)nc3sc(C(=O)c4ccccc4)c(N)c23)cc1 | -1.46 |
| O=C1NCCN1c1ncc([N+](=O)[O-])s1 | 19.6 |
| COc1ccc(NC(=O)Nc2cccnc2)c(OC)c1 | 5.8 |
| COc1ccc(C(=O)c2ccsc2N)cc1 | 22 |
| O=C(NCc1cccnc1)/C(=C\c1ccc(-c2ccc(Cl)c(Cl)c2)o1)S(=O)(=O)c1ccccc1 | 5.91 |
| CC(=O)Nc1ccc(Nc2cc(N(C)C)c3nonc3c2[N+](=O)[O-])cc1 | 99.2 |

Please give activation for each item listed below.
1. C=C(C)c1cccc(C(C)(C)NC(=O)Nc2cccnc2)c1
2. COc1ccc(C(=O)c2sc3nc(C)cc(-c4cccs4)c3c2N)cc1OC
3. COc1ccc(C(=O)c2sc3nc(-c4ccccc4)ccc3c2N)cc1
4. CC(C)Cn1c(N)c(C(=O)COC(=O)c2cc(F)cc(F)c2)c(=O)n(C)c1=O

[15.5, 4.99, 85.5, 225]

Documented activation of CCOC(=O)CCC(=O)NCc1ccc2c(c1)cc(C)n2C : 11.9

* * *

# ASSAY_TARGET: Troponin I, cardiac muscle (Homo sapiens) + Troponin T, cardiac muscle (Homo sapiens) + Troponin C, slow skeletal and cardiac muscles (Homo sapiens) (UniProt P19429+P45379+P63316)
# TEST_NAME: cardiac RTF calcium sensitivity activators, confirmation, biochemical, IANBD-TnC fluorescence, triplicate (AID 504383);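 note: 0% = DMSO at 0.472 mM calcium and 100% = DMSO at 2.9 mM calcium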
# CONDITION_SUMMARY: IANBD-labeled cardiac RTF, Ca2+ sensitivity fluorescence; at 7.2 µM; hits give high values; scaled from EC20 to saturating calcium; tested at EC20 calcium, 0.472 mM
Hit rate of the full screen: of about 2,500 compounds, about 1,200 (48%) were called active. So high a share suggests a set chosen from earlier hits. The list shows a part of the results.
Assign class by activation: not lower than 30% means MET; lower than 30% means NOT MET.

| MOLECULE | CATEGORY |
| --- | --- |
| COc1ccc(-n2c(O)c(/C=N/NS(=O)(=O)c3cccc([N+](=O)[O-])c3)c3ccccc3c2=O)cc1OC | NOT MET |

Say whether Cc1ccc(CNC(=O)CC(C)S(=O)(=O)c2ccc3c(c2)NC(=O)CS3)o1 (stereo not drawn) shows activation of 30% or more.
MET

Please tell me: is the molecule CN(CC(=O)NCc1ccco1)S(=O)(=O)c1cccc2cccnc12 at or over 30% in terms of activation?
MET

Identify whether the reported activation of the following molecule is 30% or greater: CCOc1ccc2nc3cc(NCc4ccc(OC)cc4)ccc3c(N)c2c1
NOT MET

Given the entry COCCNC(=O)[C@H]1C[C@@H]1[C@H](NP(=O)(c1ccccc1)c1ccccc1)c1ccccc1 , answer whether its activation meets or surpasses 30%.
MET

Exam item: decide whether the reported activation for Cc1ccc(OCc2ccc(C(=O)O)o2)cc1C is at least 30%.
NOT MET

I'd appreciate it if you could say whether CCCCOC(=O)Cn1c2ccc(OC)cc2c2nc3ccccc3nc21 has activation at least equal to 30%.
NOT MET

Item C[C@H](CO)NC(=O)[C@@H]1C[C@H]1[C@@H](NP(=O)(c1ccccc1)c1ccccc1)c1ccccc1 with activation of 30% or above?
NOT MET

Could you verify whether the entry N#C/C(=C\c1ccc(-c2ccccc2C(=O)O)o1)c1nc2ccccc2[nH]1 shows activation of no less than 30%?
NOT MET

Quick check: does N#C/C(=C\c1ccc(Sc2ccc(Cl)cc2)o1)c1nc2ccccc2[nH]1 have activation greater than or equal to 30%?
NOT MET

Item Cc1ccc(C(=O)NCC(=O)OCC(=O)N(CC(C)C)c2c(N)n(Cc3ccccc3)c(=O)[nH]c2=O)cc1 with activation of 30% or above?
NOT MET

Is reported activation greater than or equal to 30% here: COc1ccccc1N=Cc1c(C)c(C#N)c2[nH]c3ccccc3n2c1=O
NOT MET

State whether the measured activation reaches 30%, counting equality as reaching it, for CCOc1ccc(Cn2c3ccc(OC)cc3c3nc4ccccc4nc32)cc1
MET
